The values you see were collected from patent US20240376198A1.

Recorded Bmax (MFI), one value per entry.
- Target Entity: T1, mouse NKp46 (mouse, UniProt Q8C567 17-325)
- T1 construct: whole, on cells
- T1 sequence (looked up): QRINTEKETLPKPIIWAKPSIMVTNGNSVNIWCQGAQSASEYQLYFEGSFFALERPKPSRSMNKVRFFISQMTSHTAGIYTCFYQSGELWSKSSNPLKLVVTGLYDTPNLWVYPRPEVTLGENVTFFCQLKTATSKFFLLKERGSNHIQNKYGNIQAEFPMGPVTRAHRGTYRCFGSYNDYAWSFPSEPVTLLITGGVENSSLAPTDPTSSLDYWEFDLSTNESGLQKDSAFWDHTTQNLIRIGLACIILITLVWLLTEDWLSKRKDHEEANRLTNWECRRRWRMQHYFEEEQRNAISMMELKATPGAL
- Procedure Text: flow cytometry, HEK293F cells transfected with mouse NKp46
Provide only the numeric value, understood in MFI.

Would you kindly share the measured Bmax (MFI) for NKp46-5D7-Fc* (Fc fusion, VHH-Fc fusion with an IgG1 Fc lacking a hinge (Fc*); also called 5D7 VHH) QVTLRESGASLSLTCAASGRTFASAAMGWFRQAPGEEREFVAAISRSDDTYYADSVKGRFTISRDNAKNTVYLQMNSLKSEDTAVYYCAAVVPTYGNNIYVHSAAYNYWGQGTQVTVKPGGGGGPSVFLFPPKPKDTLMISRTPEVTCVVVDVSHEDPEVKFNWYVDGVEVHNAKTKPREEQYNSTYRVVSVLTVLHQDWLNGKEYKCKVSNKALPAPIEKTISKAKGQPREPQVYTLPPSRDELTKNQVSLTCLVKGFYPSDIAVEWESNGQPENNYKTTPPVLDSDGSFFLYSKLTVDKSRWQQGNVFSCSVMHEALHNHYTQKSLSLSPG ?
1.07e+06

# input binder: NKp46-hz5D7v1-Fc* (Fc fusion, VHH-Fc fusion with an IgG1 Fc lacking a hinge (Fc*)) EVQLVESGGGEVQPGGSLRLSCAASGRTFASAAMGWFRQAPGKGREFVAAISRSDDTYYAESVKGRFTISRDNAKNTLYLQMSSLRAEDTAVYYCAAVVPTYGNNIYVHSAAYNYWGQGTLVTVKPGGGGPSVFLFPPKPKDTLMISRTPEVTCVVVDVSHEDPEVKFNWYVDGVEVHNAKTKPREEQYNSTYRVVSVLTVLHQDWLNGKEYKCKVSNKALPAPIEKTISKAKGQPREPQVYTLPPSRDELTKNQVSLTCLVKGFYPSDIAVEWESNGQPENNYKTTPPVLDSDGSFFLYSKLTVDKSRWQQGNVFSCSVMHEALHNHYTQKSLSLSPG ; wanted: its Bmax (MFI)
1.17e+06
